Origin of the recorded values: paper PMC11345841

We begin with a simple list: items and their reported remaining binding at 1 µM.
systemName: KIT(A829P) (Homo sapiens, UniProt P10721, A829P)
Construct: purchased Eurofins DiscoverX KINOMEscan (scanTK)
Sequence (P10721 26-976 A829P): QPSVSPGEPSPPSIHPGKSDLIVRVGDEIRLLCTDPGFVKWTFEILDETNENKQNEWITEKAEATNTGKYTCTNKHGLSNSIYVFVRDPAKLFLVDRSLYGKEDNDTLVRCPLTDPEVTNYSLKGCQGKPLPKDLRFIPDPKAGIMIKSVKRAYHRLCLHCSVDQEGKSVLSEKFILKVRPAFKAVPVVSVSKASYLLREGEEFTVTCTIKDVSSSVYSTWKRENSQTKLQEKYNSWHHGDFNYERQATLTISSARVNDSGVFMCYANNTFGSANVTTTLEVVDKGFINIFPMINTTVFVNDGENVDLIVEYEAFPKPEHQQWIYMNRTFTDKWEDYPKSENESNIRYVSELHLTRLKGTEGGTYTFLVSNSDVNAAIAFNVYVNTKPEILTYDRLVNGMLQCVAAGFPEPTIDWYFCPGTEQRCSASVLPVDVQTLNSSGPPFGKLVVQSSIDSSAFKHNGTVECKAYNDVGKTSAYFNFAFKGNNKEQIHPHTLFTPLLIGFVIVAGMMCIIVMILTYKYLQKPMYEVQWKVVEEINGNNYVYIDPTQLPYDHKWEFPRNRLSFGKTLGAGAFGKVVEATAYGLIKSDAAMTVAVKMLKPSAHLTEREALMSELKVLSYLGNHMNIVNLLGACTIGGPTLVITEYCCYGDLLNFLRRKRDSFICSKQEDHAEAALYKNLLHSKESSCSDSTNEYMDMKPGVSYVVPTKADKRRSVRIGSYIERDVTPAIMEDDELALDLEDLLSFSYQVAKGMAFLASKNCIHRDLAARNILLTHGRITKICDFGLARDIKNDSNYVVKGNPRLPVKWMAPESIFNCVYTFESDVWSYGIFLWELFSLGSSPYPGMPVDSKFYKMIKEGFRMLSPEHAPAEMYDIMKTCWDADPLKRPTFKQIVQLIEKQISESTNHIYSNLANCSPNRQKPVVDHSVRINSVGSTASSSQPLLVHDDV
assay: KINOMEscan ScanTK
Type: binding
measurementConditions: read-out: %Control @1000nM
measurementKind: remaining binding at 1 µM (%)

• CNC(=O)c1cnc(S(C)(=O)=O)nc1N1CCCC(n2nc(-c3ccc(Oc4ccccc4)cc3)c3c(N)ncnc32)C1 (stereo not shown) = 63
• Cc1cnc(S(C)(=O)=O)nc1N1CCCC(n2nc(-c3ccc(Oc4ccccc4)cc3)c3c(N)ncnc32)C1 (stereo not shown) = 84
• CCOC(=O)c1cnc(S(C)(=O)=O)nc1N1CCC[C@@H](n2nc(-c3ccc(Oc4ccccc4)cc3)c3c(N)ncnc32)C1 = 73
• COC(=O)c1cnc(S(C)(=O)=O)nc1N1CCCC(n2nc(-c3ccc(Oc4ccccc4)cc3)c3c(N)ncnc32)C1 (stereo not shown) = 70

###

Collected inhibition at 1 µM values appear next to each entry.
systemName: EGFR (Homo sapiens, UniProt P00533)
Construct: purchased Eurofins DiscoverX KINOMEscan (scanTK)
Sequence (P00533 25-1210): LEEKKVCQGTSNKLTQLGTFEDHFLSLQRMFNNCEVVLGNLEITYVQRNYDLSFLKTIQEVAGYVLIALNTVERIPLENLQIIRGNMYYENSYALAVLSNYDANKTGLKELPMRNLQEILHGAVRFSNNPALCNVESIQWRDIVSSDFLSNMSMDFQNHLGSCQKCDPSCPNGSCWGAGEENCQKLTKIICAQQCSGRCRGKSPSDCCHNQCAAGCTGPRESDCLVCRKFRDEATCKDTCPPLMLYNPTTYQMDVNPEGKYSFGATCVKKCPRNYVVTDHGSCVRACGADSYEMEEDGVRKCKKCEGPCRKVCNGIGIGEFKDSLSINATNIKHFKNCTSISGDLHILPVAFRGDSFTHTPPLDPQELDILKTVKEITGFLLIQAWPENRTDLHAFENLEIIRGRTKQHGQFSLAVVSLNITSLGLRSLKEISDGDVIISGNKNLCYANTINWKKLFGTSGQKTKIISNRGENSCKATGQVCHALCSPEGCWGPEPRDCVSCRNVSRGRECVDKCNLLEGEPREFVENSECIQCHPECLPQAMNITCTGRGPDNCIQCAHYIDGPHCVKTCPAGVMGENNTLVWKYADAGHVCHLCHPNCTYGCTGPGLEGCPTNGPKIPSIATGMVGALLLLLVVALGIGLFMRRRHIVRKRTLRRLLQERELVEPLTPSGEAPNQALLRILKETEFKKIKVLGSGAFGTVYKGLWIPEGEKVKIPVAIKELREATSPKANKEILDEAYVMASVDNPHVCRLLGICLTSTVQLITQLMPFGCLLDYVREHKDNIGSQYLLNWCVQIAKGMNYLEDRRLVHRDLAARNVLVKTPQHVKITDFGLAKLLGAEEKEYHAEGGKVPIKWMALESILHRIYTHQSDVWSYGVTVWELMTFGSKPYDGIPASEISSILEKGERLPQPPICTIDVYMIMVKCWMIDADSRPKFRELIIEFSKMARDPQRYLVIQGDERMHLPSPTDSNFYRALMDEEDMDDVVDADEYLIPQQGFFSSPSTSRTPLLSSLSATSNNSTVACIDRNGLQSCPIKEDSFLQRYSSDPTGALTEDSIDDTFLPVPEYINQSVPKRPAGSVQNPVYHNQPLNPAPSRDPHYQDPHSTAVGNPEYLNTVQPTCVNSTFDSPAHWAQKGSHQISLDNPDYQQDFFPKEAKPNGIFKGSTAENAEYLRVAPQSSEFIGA
assay: KINOMEscan ScanTK
Assay type: binding
measurementConditions: ScanTK, 1 μM; WT EGFR
measurementKind: inhibition at 1 µM (%)

• Cc1cnc(S(C)(=O)=O)nc1N1CCCC(n2nc(-c3ccc(Oc4ccccc4)cc3)c3c(N)ncnc32)C1 (stereo not shown) [Compound 8a] = 47
• CNC(=O)c1cnc(S(C)(=O)=O)nc1N1CCCC(n2nc(-c3ccc(Oc4ccccc4)cc3)c3c(N)ncnc32)C1 (stereo not shown) [Compound 8d] = 83
• CCOC(=O)c1cnc(S(C)(=O)=O)nc1N1CCC[C@@H](n2nc(-c3ccc(Oc4ccccc4)cc3)c3c(N)ncnc32)C1 [Compound 8c] = 57
• COC(=O)c1cnc(S(C)(=O)=O)nc1N1CCCC(n2nc(-c3ccc(Oc4ccccc4)cc3)c3c(N)ncnc32)C1 (stereo not shown) [Compound 8b] = 67

###

systemName: EPHB3 (Homo sapiens, UniProt P54753)
Construct: purchased Eurofins DiscoverX KINOMEscan (scanTK)
Sequence (P54753 34-998): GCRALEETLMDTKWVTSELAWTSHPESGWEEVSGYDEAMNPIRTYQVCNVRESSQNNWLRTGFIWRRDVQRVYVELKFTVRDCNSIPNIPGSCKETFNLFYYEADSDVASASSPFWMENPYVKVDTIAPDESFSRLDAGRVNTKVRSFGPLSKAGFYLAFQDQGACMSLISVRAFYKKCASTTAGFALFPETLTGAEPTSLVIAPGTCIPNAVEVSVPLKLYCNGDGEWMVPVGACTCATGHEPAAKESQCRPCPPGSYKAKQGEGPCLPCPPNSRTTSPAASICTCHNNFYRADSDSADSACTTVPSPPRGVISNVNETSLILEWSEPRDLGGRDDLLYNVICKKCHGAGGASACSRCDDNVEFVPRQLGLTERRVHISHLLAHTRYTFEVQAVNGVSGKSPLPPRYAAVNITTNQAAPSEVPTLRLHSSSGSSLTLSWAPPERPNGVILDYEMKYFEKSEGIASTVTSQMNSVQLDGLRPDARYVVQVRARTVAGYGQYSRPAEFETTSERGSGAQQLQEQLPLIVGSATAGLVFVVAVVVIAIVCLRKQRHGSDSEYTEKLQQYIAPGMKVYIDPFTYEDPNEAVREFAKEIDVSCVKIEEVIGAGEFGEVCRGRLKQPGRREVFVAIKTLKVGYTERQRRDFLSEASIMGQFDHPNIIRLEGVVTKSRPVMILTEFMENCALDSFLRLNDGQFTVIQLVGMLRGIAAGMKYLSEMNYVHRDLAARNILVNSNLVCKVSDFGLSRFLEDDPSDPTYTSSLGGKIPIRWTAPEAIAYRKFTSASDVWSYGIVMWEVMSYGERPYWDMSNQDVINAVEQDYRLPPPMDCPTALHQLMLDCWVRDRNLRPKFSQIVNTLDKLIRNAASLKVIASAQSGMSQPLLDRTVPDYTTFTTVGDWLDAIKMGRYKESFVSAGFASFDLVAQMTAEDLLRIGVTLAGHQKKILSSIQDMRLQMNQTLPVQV
assay: KINOMEscan ScanTK
Format: binding
measurementConditions: @1000nM, read-out: %Control
measurementKind: remaining binding at 1 µM (%)

• CCOC(=O)c1cnc(S(C)(=O)=O)nc1N1CCC[C@@H](n2nc(-c3ccc(Oc4ccccc4)cc3)c3c(N)ncnc32)C1 [Compound 8c] = 78
• CNC(=O)c1cnc(S(C)(=O)=O)nc1N1CCCC(n2nc(-c3ccc(Oc4ccccc4)cc3)c3c(N)ncnc32)C1 (centres unmarked) [Compound 8d] = 100
• COC(=O)c1cnc(S(C)(=O)=O)nc1N1CCCC(n2nc(-c3ccc(Oc4ccccc4)cc3)c3c(N)ncnc32)C1 (centres unmarked) [Compound 8b] = 97
• C=CC(=O)N1CCC[C@@H](n2nc(-c3ccc(Oc4ccccc4)cc3)c3c(N)ncnc32)C1 [Compound 1g, Ibrutinib, reference compound] = 98
• Cc1cnc(S(C)(=O)=O)nc1N1CCCC(n2nc(-c3ccc(Oc4ccccc4)cc3)c3c(N)ncnc32)C1 (centres unmarked) [Compound 8a] = 100
